Organism: Bos taurus
Assay: Inhibition of bovine thymocytes protein tyrosine kinase assessed as angiotensin 1 phosphorylation
For each record, write down the corresponding ID50.
Give the value, in units of µg/mL, as a plain number.

For this molecule ( "COc1cc(/C=C/C(=O)O)ccc1O" ), measured ID50 is 350

For this molecule ( "O=c1cc(-c2ccc(O)cc2)oc2cc(O)cc(O)c12" ), measured ID50 is 90

For this molecule ( "O=c1c(O)c(-c2cc(O)c(O)c(O)c2)oc2cc(O)ccc12" ), measured ID50 is 7

For this molecule ( "O=c1c(O)c(-c2ccc(O)c(O)c2)oc2cc(O)cc(O)c12" ), measured ID50 is 11

###

Species on record: Bos taurus
Assay: Inhibition of bovine thymocytes protein tyrosine kinase assessed as angiotensin 1 phosphorylation
QUANTITY NAME: ID50

For this molecule ( "O=C1C[C@@H](c2ccc(O)cc2)Oc2cc(O)cc(O)c21" ), measured ID50 is 80 µg/mL

For this molecule ( "COc1ccc(-c2oc3cc(O)cc(O)c3c(=O)c2OC)cc1" ), measured ID50 is > 500 µg/mL

For this molecule ( "O=c1c(O)c(-c2cc(O)c(O)c(O)c2)oc2cc(O)cc(O)c12" ), measured ID50 is 11 µg/mL

For this molecule ( "O=c1c(-c2ccc(O)cc2)coc2cc(O)cc(O)c12" ), measured ID50 is > 500 µg/mL

For this molecule ( O=C1CC(c2ccccc2)Oc2cc(O)ccc21 (stereo unspecified) ), measured ID50 is > 500 µg/mL

For this molecule ( "COc1cc(C(=O)O)cc(OC)c1O" ), measured ID50 is > 500 µg/mL

###

Organism: Bos taurus
Test: Inhibition of bovine thymocytes protein tyrosine kinase assessed as angiotensin 1 phosphorylation
QUANTITY NAME: log10 of ID50 (log10 of the value in µg/mL)
In our notation, the value equals log10 of ID50 in µg/mL.

For this compound ( "COc1ccc(-c2cc(=O)c3c(O)c(OC)c(O)c(OC)c3o2)cc1" ), measured log10 of ID50 is 1.68

For this compound ( "O=C1c2c(O)cc(O)cc2O[C@H](c2ccc(O)c(O)c2)[C@H]1O" ), measured log10 of ID50 is 2.43

For this compound ( "COc1ccc(-c2cc(=O)c3c(O)cc(O)cc3o2)cc1" ), measured log10 of ID50 is 2.48

For this compound ( "O=C(O)/C=C/c1ccc(O)cc1" ), measured log10 of ID50 is 2.65

For this compound ( "O=c1c(O)c(-c2ccc(O)c(O)c2)oc2cc(O)ccc12" ), measured log10 of ID50 is 1.54

meta.source: ChEMBL document CHEMBL1147305
